# EXPERIMENTAL_SYSTEM: Tyrosyl-tRNA synthetase, putative (Trypanosoma cruzi (strain CL Brener))
# EXPERIMENTAL_PROTOCOL: Trypanosoma cruzi tyrosyl tRNA synthetase (TcYRS) SOP
# Type: functional
# Set-up: scale not given: direction of the effect not stated beside the values
# ASSAY_CONTEXT: 30 µM

>  <COMPOUND>
CN(C)C(=O)c1cnc2n1CCN(Cc1ccccc1)C2

>  <EXPERIMENTAL_SYSTEM>
Tyrosyl-tRNA synthetase, putative (Trypanosoma cruzi (strain CL Brener))

>  <Percent Effect, %>
8.97

$$$$
>  <COMPOUND>
CC(C)c1nc(CN(C)CC2CCN(CCO)CC2)no1

>  <EXPERIMENTAL_SYSTEM>
Tyrosyl-tRNA synthetase, putative (Trypanosoma cruzi (strain CL Brener))

>  <Percent Effect, %>
9.76

$$$$
>  <COMPOUND>
Cc1nc[nH]c1CN(C)CC1CCCN(CCc2ccc(Cl)cc2)C1 (centres undefined)

>  <EXPERIMENTAL_SYSTEM>
Tyrosyl-tRNA synthetase, putative (Trypanosoma cruzi (strain CL Brener))

>  <Percent Effect, %>
2.5

$$$$
>  <COMPOUND>
CN(C(=O)c1cc(Cl)c[nH]1)C1CCN(c2ccccn2)CC1

>  <EXPERIMENTAL_SYSTEM>
Tyrosyl-tRNA synthetase, putative (Trypanosoma cruzi (strain CL Brener))

>  <Percent Effect, %>
23.5

$$$$
>  <COMPOUND>
CCCS(=O)(=O)c1ncc(CN2CCC(CO)CC2)n1CC1CCCO1 (centres undefined)

>  <EXPERIMENTAL_SYSTEM>
Tyrosyl-tRNA synthetase, putative (Trypanosoma cruzi (strain CL Brener))

>  <Percent Effect, %>
-7.69

$$$$
>  <COMPOUND>
Cc1cc(CN2CCN(C(=O)CCc3cccc(F)c3F)CC2)on1

>  <EXPERIMENTAL_SYSTEM>
Tyrosyl-tRNA synthetase, putative (Trypanosoma cruzi (strain CL Brener))

>  <Percent Effect, %>
4.88

$$$$
>  <COMPOUND>
CC(C)(C)C(=O)NCCC(=O)NS(=O)(=O)c1ccc2c(c1)OCCO2

>  <EXPERIMENTAL_SYSTEM>
Tyrosyl-tRNA synthetase, putative (Trypanosoma cruzi (strain CL Brener))

>  <Percent Effect, %>
10

$$$$
>  <COMPOUND>
CC(=O)N1CCC(Cc2cnc(-c3c(C)n[nH]c3C)cn2)C1 (centres undefined)

>  <EXPERIMENTAL_SYSTEM>
Tyrosyl-tRNA synthetase, putative (Trypanosoma cruzi (strain CL Brener))

>  <Percent Effect, %>
1.28

$$$$
>  <COMPOUND>
O=C(Cc1ccccn1)N1CCN(C(=O)c2cccc3[nH]ncc23)CC1

>  <EXPERIMENTAL_SYSTEM>
Tyrosyl-tRNA synthetase, putative (Trypanosoma cruzi (strain CL Brener))

>  <Percent Effect, %>
5.06

$$$$
>  <COMPOUND>
CCc1nc(NS(=O)(=O)c2ccc(F)cc2C)no1

>  <EXPERIMENTAL_SYSTEM>
Tyrosyl-tRNA synthetase, putative (Trypanosoma cruzi (strain CL Brener))

>  <Percent Effect, %>
6.17

$$$$
>  <COMPOUND>
Cc1cccc(COC[C@H]2CC[C@H]3[C@H](CCN3C(=O)CC3CC3)O2)n1

>  <EXPERIMENTAL_SYSTEM>
Tyrosyl-tRNA synthetase, putative (Trypanosoma cruzi (strain CL Brener))

>  <Percent Effect, %>
19.2

$$$$
>  <COMPOUND>
CCn1ncnc1C(C)NC(=O)C1CCN(C(C)C)CC1 (centres undefined)

>  <EXPERIMENTAL_SYSTEM>
Tyrosyl-tRNA synthetase, putative (Trypanosoma cruzi (strain CL Brener))

>  <Percent Effect, %>
21

$$$$
>  <COMPOUND>
Cc1noc(C)c1-c1cncc(C2CCCN2Cc2cncnc2)n1 (centres undefined)

>  <EXPERIMENTAL_SYSTEM>
Tyrosyl-tRNA synthetase, putative (Trypanosoma cruzi (strain CL Brener))

>  <Percent Effect, %>
8.97

$$$$
>  <COMPOUND>
Cc1nc(CN2CCOC(c3nc(C(C)C)n[nH]3)C2)oc1C (centres undefined)

>  <EXPERIMENTAL_SYSTEM>
Tyrosyl-tRNA synthetase, putative (Trypanosoma cruzi (strain CL Brener))

>  <Percent Effect, %>
8.86

$$$$
>  <COMPOUND>
Cc1cc(NC(=O)C(c2cccc(F)c2)N2CCOCC2)ccn1 (centres undefined)

>  <EXPERIMENTAL_SYSTEM>
Tyrosyl-tRNA synthetase, putative (Trypanosoma cruzi (strain CL Brener))

>  <Percent Effect, %>
7.79

$$$$
>  <COMPOUND>
O=C(CN1CCCC(O)C1)NC(=O)NCc1cccs1 (centres undefined)

>  <EXPERIMENTAL_SYSTEM>
Tyrosyl-tRNA synthetase, putative (Trypanosoma cruzi (strain CL Brener))

>  <Percent Effect, %>
7.79

$$$$
>  <COMPOUND>
CCN(CC1CCOC1)C(=O)c1ccccc1N1CCOCC1 (centres undefined)

>  <EXPERIMENTAL_SYSTEM>
Tyrosyl-tRNA synthetase, putative (Trypanosoma cruzi (strain CL Brener))

>  <Percent Effect, %>
11.1

$$$$
>  <COMPOUND>
Cc1nc(N2CCN(C(=O)c3ccc(O)cc3)CC2)c2cnn(C)c2n1

>  <EXPERIMENTAL_SYSTEM>
Tyrosyl-tRNA synthetase, putative (Trypanosoma cruzi (strain CL Brener))

>  <Percent Effect, %>
-6.17

$$$$
>  <COMPOUND>
O=C(COC[C@H]1CC[C@H]2[C@H](CCN2c2ncccn2)O1)N1CCCC1

>  <EXPERIMENTAL_SYSTEM>
Tyrosyl-tRNA synthetase, putative (Trypanosoma cruzi (strain CL Brener))

>  <Percent Effect, %>
13.6

$$$$
>  <COMPOUND>
CN1CCCN(C(=O)NCc2csc(Br)c2)CC1

>  <EXPERIMENTAL_SYSTEM>
Tyrosyl-tRNA synthetase, putative (Trypanosoma cruzi (strain CL Brener))

>  <Percent Effect, %>
18.3

$$$$
>  <COMPOUND>
Fc1cccc(N2CCCC3(CN(Cc4ccncc4)CCO3)C2)c1 (centres undefined)

>  <EXPERIMENTAL_SYSTEM>
Tyrosyl-tRNA synthetase, putative (Trypanosoma cruzi (strain CL Brener))

>  <Percent Effect, %>
11.5

$$$$
>  <COMPOUND>
Cc1[nH]ncc1C(=O)N1CCCC(c2cc(C(F)(F)F)[nH]n2)C1 (centres undefined)

>  <EXPERIMENTAL_SYSTEM>
Tyrosyl-tRNA synthetase, putative (Trypanosoma cruzi (strain CL Brener))

>  <Percent Effect, %>
6.1

$$$$
>  <COMPOUND>
O=C(N1CCCC1)N1CCN(CC2CC2)c2ncccc2C1

>  <EXPERIMENTAL_SYSTEM>
Tyrosyl-tRNA synthetase, putative (Trypanosoma cruzi (strain CL Brener))

>  <Percent Effect, %>
1.28

$$$$
>  <COMPOUND>
CNC(=O)CCc1cc(C)nc(C2CCCN2)c1 (centres undefined)

>  <EXPERIMENTAL_SYSTEM>
Tyrosyl-tRNA synthetase, putative (Trypanosoma cruzi (strain CL Brener))

>  <Percent Effect, %>
11.7

$$$$

----------
Percent Effect for assorted molecules
# EXPERIMENTAL_SYSTEM: AMP-activated protein kinase, AMPK (Homo sapiens) (UniProt P54646+O43741+P54619+Q9UGJ0+Q9Y478+Q13131+Q9UGI9)
# EXPERIMENTAL_PROTOCOL: AMP-dependent Kinase enzyme assay. An in vitro enzyme assay that detects ADP turnover that is directly proportional to AMPK activity. This uses naive AMPK that is activated during the assay with MK-8722
# Type: functional
# Design: scale not given: direction of the effect not stated beside the values
# ASSAY_CONTEXT: 30 µM

>  <MOLECULE>
CC1CN(C)c2ccccc2CN1C(=O)c1ccncc1 (stereo not drawn)

>  <RESULT_UNIT>
%

>  <Percent Effect>
4.78

$$$$
>  <MOLECULE>
CC(NC(=O)NCCNc1cnccn1)c1cccs1 (stereo not drawn)

>  <RESULT_UNIT>
%

>  <Percent Effect>
1.73

$$$$
>  <MOLECULE>
Cc1cccc(CN2CCc3ncnc(N4CCOCC4)c3CC2)n1

>  <RESULT_UNIT>
%

>  <Percent Effect>
1.75

$$$$
>  <MOLECULE>
Cc1nccn1C1CCCN(C(=O)c2ccc(N3CCCC3)nn2)C1 (stereo not drawn)

>  <RESULT_UNIT>
%

>  <Percent Effect>
-5.31

$$$$
>  <MOLECULE>
CC(C)c1nnc2n1CCN(Cc1csc(CC(=O)N(C)C)n1)C2

>  <RESULT_UNIT>
%

>  <Percent Effect>
10.8

$$$$
>  <MOLECULE>
CC(C)(C)n1cc(C(=O)N2CCN(Cc3ccccc3F)CC2)cn1

>  <RESULT_UNIT>
%

>  <Percent Effect>
-1.01

$$$$
>  <MOLECULE>
COCCN1CCOCC2(CCCN(Cc3ccc(C)o3)C2)C1 (stereo not drawn)

>  <RESULT_UNIT>
%

>  <Percent Effect>
0.538

$$$$
>  <MOLECULE>
COCCNC(=O)C[C@@H]1COC[C@H]2CN(C(=O)c3cnccn3)C[C@@H]12

>  <RESULT_UNIT>
%

>  <Percent Effect>
-4.71

$$$$
>  <MOLECULE>
c1ccc(-n2ncc(CNCC3CCCN3c3cccnn3)n2)cc1 (stereo not drawn)

>  <RESULT_UNIT>
%

>  <Percent Effect>
-19.7

$$$$
>  <MOLECULE>
CN(Cc1ccco1)C(=O)CN1CCCC(Cn2cncn2)C1 (stereo not drawn)

>  <RESULT_UNIT>
%

>  <Percent Effect>
-6.77

$$$$
>  <MOLECULE>
CC1(C)CC(N(Cc2ccccc2)Cc2cccnc2)CC(C)(C)N1

>  <RESULT_UNIT>
%

>  <Percent Effect>
-4.84

$$$$
>  <MOLECULE>
CC(=O)c1cn(CCC(=O)N[C@H](C(=O)O)C(C)C)c2ccccc12

>  <RESULT_UNIT>
%

>  <Percent Effect>
3.61

$$$$
>  <MOLECULE>
O=C(c1ccnnc1)N1C[C@H](Oc2cccnc2)[C@H]2OCCC[C@H]21

>  <RESULT_UNIT>
%

>  <Percent Effect>
-1.06

$$$$
>  <MOLECULE>
COc1cc(NC(=O)c2cc(C)sc2C)c(C(=O)N(C)C)cc1OC

>  <RESULT_UNIT>
%

>  <Percent Effect>
-2.17

$$$$
>  <MOLECULE>
CC(C)CS(=O)(=O)N1C[C@H]2C[C@H](C(=O)NCc3ccccc3)[C@@H](C1)O2

>  <RESULT_UNIT>
%

>  <Percent Effect>
4.22

$$$$
>  <MOLECULE>
CS(=O)(=O)CC(=O)N1C[C@H]2CCC[C@@]2(COCc2ccccn2)C1

>  <RESULT_UNIT>
%

>  <Percent Effect>
-3.2

$$$$
>  <MOLECULE>
CC1=Nc2c(c(=O)[nH]n2C(C)C)C(c2ccc(F)c(F)c2)S1 (stereo not drawn)

>  <RESULT_UNIT>
%

>  <Percent Effect>
8.28

$$$$
>  <MOLECULE>
N#Cc1ccccc1CN1CCCCC1Cn1cncn1 (stereo not drawn)

>  <RESULT_UNIT>
%

>  <Percent Effect>
-13.3

$$$$
>  <MOLECULE>
CC(=O)N1CC(=O)N(c2cnn(C)c2)CC12CCN(Cc1ccoc1)C2 (stereo not drawn)

>  <RESULT_UNIT>
%

>  <Percent Effect>
1.2

$$$$
>  <MOLECULE>
CC(CNc1cncc(-n2cccn2)n1)N(C)c1ccccc1 (stereo not drawn)

>  <RESULT_UNIT>
%

>  <Percent Effect>
9.04

$$$$
>  <MOLECULE>
Cc1nc(C2CCCN2Cc2nnc(C3CC3)o2)no1 (stereo not drawn)

>  <RESULT_UNIT>
%

>  <Percent Effect>
4.19

$$$$
>  <MOLECULE>
CC(C)c1noc(C(C)N2CCN(CCO)CC2)n1 (stereo not drawn)

>  <RESULT_UNIT>
%

>  <Percent Effect>
-14.5

$$$$
>  <MOLECULE>
COCCc1noc(CN(C)C2CCCN(c3ccc(C)nn3)C2)n1 (stereo not drawn)

>  <RESULT_UNIT>
%

>  <Percent Effect>
-6.26

$$$$
